System: Escherichia coli TOP10;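 further: peptides expressed intracellularly from a pBAD plasmid library in pooled LB shake-flask culture, induced with 0.3% L-arabinose, DNA abundance read by NGS, three biological replicates, DESeq2 with apeglm shrinkage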
assay-name: shrunken log2 fold change of peptide-encoding DNA abundance (4.5 h post-induction vs induction); higher = less antimicrobial activity (less host growth inhibition)
reported-conditions: time post-induction: 4.5 h; library: site-saturation at positions 5, 18, 19, 20
Output: class label from shrunken log2 fold change. Mapping: low value = under -0.09, medium value = from -0.09 up to 0.02, high value = 0.02 and over

[[record]]
polymer_sequence = "RRIRVRPPRLPRPRPRPYICPRP"
classification = "low value"

[[record]]
polymer_sequence = "RRIRHRPPRLPRPRPRPDFIPRP"
classification = "low value"

[[record]]
polymer_sequence = "RRIRRRPPRLPRPRPRPPSCPRP"
classification = "high value"

[[record]]
polymer_sequence = "RRIRLRPPRLPRPRPRPMCEPRP"
classification = "medium value"

[[record]]
polymer_sequence = "RRIRTRPPRLPRPRPRPYSNPRP"
classification = "low value"

[[record]]
polymer_sequence = "RRIRFRPPRLPRPRPRPVWLPRP"
classification = "medium value"

[[record]]
polymer_sequence = "RRIRCRPPRLPRPRPRPSMQPRP"
classification = "low value"

[[record]]
polymer_sequence = "RRIRVRPPRLPRPRPRPRWCPRP"
classification = "high value"

[[record]]
polymer_sequence = "RRIRWRPPRLPRPRPRPFNCPRP"
classification = "low value"

[[record]]
polymer_sequence = "RRIRSRPPRLPRPRPRPNCSPRP"
classification = "medium value"

[[record]]
polymer_sequence = "RRIRWRPPRLPRPRPRPPPTPRP"
classification = "high value"

[[record]]
polymer_sequence = "RRIRRRPPRLPRPRPRPMLQPRP"
classification = "low value"

[[record]]
polymer_sequence = "RRIRGRPPRLPRPRPRPIFKPRP"
classification = "high value"

[[record]]
polymer_sequence = "RRIRARPPRLPRPRPRPNREPRP"
classification = "high value"

[[record]]
polymer_sequence = "RRIRERPPRLPRPRPRPREMPRP"
classification = "high value"

[[record]]
polymer_sequence = "RRIRCRPPRLPRPRPRPCSCPRP"
classification = "low value"

[[record]]
polymer_sequence = "RRIRHRPPRLPRPRPRPKKEPRP"
classification = "medium value"

[[record]]
polymer_sequence = "RRIRKRPPRLPRPRPRPWINPRP"
classification = "medium value"

[[record]]
polymer_sequence = "RRIRKRPPRLPRPRPRPQEYPRP"
classification = "medium value"

[[record]]
polymer_sequence = "RRIRCRPPRLPRPRPRPMNQPRP"
classification = "low value"

[[record]]
polymer_sequence = "RRIRVRPPRLPRPRPRPYWDPRP"
classification = "high value"

[[record]]
polymer_sequence = "RRIRLRPPRLPRPRPRPIWWPRP"
classification = "high value"

[[record]]
polymer_sequence = "RRIRNRPPRLPRPRPRPWDYPRP"
classification = "medium value"

[[record]]
polymer_sequence = "RRIRFRPPRLPRPRPRPHTCPRP"
classification = "medium value"

[[record]]
polymer_sequence = "RRIRIRPPRLPRPRPRPEPVPRP"
classification = "high value"

[[record]]
polymer_sequence = "RRIRGRPPRLPRPRPRPQKLPRP"
classification = "high value"

[[record]]
polymer_sequence = "RRIRWRPPRLPRPRPRPAEHPRP"
classification = "medium value"

[[record]]
polymer_sequence = "RRIRLRPPRLPRPRPRPAIWPRP"
classification = "medium value"

[[record]]
polymer_sequence = "RRIRDRPPRLPRPRPRPNFYPRP"
classification = "low value"

[[record]]
polymer_sequence = "RRIRSRPPRLPRPRPRPVGSPRP"
classification = "high value"

[[record]]
polymer_sequence = "RRIRLRPPRLPRPRPRPTESPRP"
classification = "high value"

[[record]]
polymer_sequence = "RRIRHRPPRLPRPRPRPYHFPRP"
classification = "low value"

[[record]]
polymer_sequence = "RRIRMRPPRLPRPRPRPSSNPRP"
classification = "low value"

[[record]]
polymer_sequence = "RRIRHRPPRLPRPRPRPSQQPRP"
classification = "medium value"

[[record]]
polymer_sequence = "RRIRGRPPRLPRPRPRPRSFPRP"
classification = "medium value"

[[record]]
polymer_sequence = "RRIRPRPPRLPRPRPRPLQHPRP"
classification = "low value"

[[record]]
polymer_sequence = "RRIRARPPRLPRPRPRPHDCPRP"
classification = "low value"

[[record]]
polymer_sequence = "RRIRPRPPRLPRPRPRPAKYPRP"
classification = "low value"

[[record]]
polymer_sequence = "RRIRHRPPRLPRPRPRPLPRPRP"
classification = "high value"

[[record]]
polymer_sequence = "RRIRERPPRLPRPRPRPRCDPRP"
classification = "medium value"

[[record]]
polymer_sequence = "RRIRGRPPRLPRPRPRPMKHPRP"
classification = "high value"

